system: SW 1271 complex tumor spheroid viability; test: Anticancer human tumor SW 1271 cell line growth inhibition; settings: curve of first compound; second compound 31.6 µM;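 further: spheroids exposed to agents for seven days before readout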
result_type: pIC50
Units for pIC50: none; it is -log10 of a concentration expressed in mol/L.

CNCc1ccc(-c2cc(-c3nc(-c4ccc(S(=O)(=O)C(C)C)cc4)cnc3N)on2)cc1 + Cn1nnc2c(C(N)=O)ncn2c1=O
6.76

Query: May I ask what pIC50 has been recorded for CC1COCCN1c1cc(-c2ccnn2C)c2ccnc(-c3ccn[nH]3)c2n1 (centres undefined) + Cn1nnc2c(C(N)=O)ncn2c1=O ?
Response: 7.42

* * *

tested on: SW 1271 complex tumor spheroid viability; test: Anticancer human tumor SW 1271 cell line growth inhibition; settings: second compound 0.003 µM; first compound 10 µM; stronger effect = lower value;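 further: spheroids exposed to agents for seven days before readout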;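 on viability, T/C: percent of DMSO vehicle control luminescence so 100% = vehicle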
compounds and their reported viability, T/C

COc1cc(C)[nH]c(=O)c1CN1CCc2c(Cl)cc(C(OC)C3COC3)c(Cl)c2C1=O (centres undefined) + COc1cc2c(cc1O)CCNC21CSC2c3c(OC(C)=O)c(C)c4c(c3C(COC1=O)N1C(O)C3Cc5cc(C)c(OC)c(O)c5C(C21)N3C)OCO4
0.16%
CC(C)n1c(=O)n(C)c2cnc3cc(F)c(-c4ccc(OCCCN5CCCCC5)nc4)cc3c21 + COc1cc2c(cc1O)CCNC21CSC2c3c(OC(C)=O)c(C)c4c(c3C(COC1=O)N1C(O)C3Cc5cc(C)c(OC)c(O)c5C(C21)N3C)OCO4
0.16%
COc1ccc([C@@H](O)c2cc(-c3ncnc4cc(N5CCOCC5)ccc34)c(F)cc2Cl)nn1 + CC[C@@]1(O)C(=O)OCc2c1cc1n(c2=O)Cc2cc3c(CN(C)C)c(O)ccc3nc2-1
6.38%

Query: May I ask what viability, T/C has been recorded for COc1ccc([C@@H](O)c2cc(-c3ncnc4cc(N5CCOCC5)ccc34)c(F)cc2Cl)nn1 + COc1cc2c(cc1O)CCNC21CSC2c3c(OC(C)=O)c(C)c4c(c3C(COC1=O)N1C(O)C3Cc5cc(C)c(OC)c(O)c5C(C21)N3C)OCO4 ?
Response: 0.15%
